Population Pyknosed Nuclei (%) overview
- Tested on: Fibroblast
- measurement.notes: Multiplex assay against human fibroblast
- Type: toxicity, cell-based
- conditions: 12 h, 1 µM, compound concentration 1 uM, replicate 2
# number only, unit % dropped from output

Here's what some known entries look like.
{"compound": "Cc1ccc(C(C)(O)c2nc3ccccc3s2)c(C)c1 (configuration not stated)", "measured.target": "Fibroblast", "recorded.endpoint": "Population Pyknosed Nuclei (%)", "unit.string": "%", "test.value": 29}
{"compound": "Cc1nc2ccc(Oc3ccc(F)cc3)cc2c(=O)n1C[C@H]1CCCN(C(C)C)C1.Cl", "measured.target": "Fibroblast", "recorded.endpoint": "Population Pyknosed Nuclei (%)", "unit.string": "%", "test.value": 29}
{"compound": "Cc1ccc(F)cc1C(=O)Nc1ccc(C(=O)N2Cc3cccn3Cc3ccccc32)c(Cl)c1 [LIXIVAPTAN]", "measured.target": "Fibroblast", "recorded.endpoint": "Population Pyknosed Nuclei (%)", "unit.string": "%", "test.value": 21}
{"compound": "COc1ccc2c(c1)C(C(=O)N(Cc1ccc(N(C)C)cc1)c1ccc(C(C)C)cc1)CCC2.Cl (configuration not stated)", "measured.target": "Fibroblast", "recorded.endpoint": "Population Pyknosed Nuclei (%)", "unit.string": "%", "test.value": 23}
{"compound": "CN1CCN(c2nc3cc(C(F)(F)F)ccc3n3cccc23)CC1.O=C(O)/C=C\\C(=O)O.O=C(O)/C=C\\C(=O)O", "measured.target": "Fibroblast", "recorded.endpoint": "Population Pyknosed Nuclei (%)", "unit.string": "%", "test.value": 30}
{"compound": "CCCn1c(=O)c2[nH]c(C3CCCC3)nc2n(CCC)c1=O", "measured.target": "Fibroblast", "recorded.endpoint": "Population Pyknosed Nuclei (%)", "unit.string": "%", "test.value": 28}
{"compound": "CC1(COc2ccc3c(c2)ncn3-c2ccc3cccc(N4CCC(N)CC4)c3n2)COC1 [CRENOLANIB]", "measured.target": "Fibroblast", "recorded.endpoint": "Population Pyknosed Nuclei (%)", "unit.string": "%", "test.value": 18}
{"compound": "O=C(NCCO)c1cccc(-c2cc(Nc3ccc(OC(F)(F)F)cc3)ncn2)c1", "measured.target": "Fibroblast", "recorded.endpoint": "Population Pyknosed Nuclei (%)", "unit.string": "%", "test.value": 23}

// switching to the query compound
Q: What does the record list as Population Pyknosed Nuclei (%) for CSc1ccccc1N1CCN(CCCCCC(=O)NC2CCCc3ccccc32)CC1.Cl (configuration not stated) ?
Result: 25

###

- System: HEK-293T
- measurement.notes: Multiplex assay against HEK293T
- Assay type: toxicity, cell-based
- conditions: human, 12 h, 10 µM, compound concentration 10 uM, replicate 1
This listing pairs molecules with measured Population Tubulin-Different-Phenotype (%).
Answer with a number only, understood to be in %.

{"molecule": "Cl.Clc1ccc2nsnc2c1NC1=NCCN1 [TIZANIDINE HYDROCHLORIDE]", "test.value": 32}
{"molecule": "COc1c(C)cc(NC(=O)c2nn(Cc3ccc(F)cc3)c3c2CN(C(=O)c2ccc[nH]2)C[C@]3(C)C(N)=O)cc1C", "test.value": 62}
{"molecule": "CC(=O)NCCc1c(Cc2ccccc2)[nH]c2ccccc12", "test.value": 45}

Then there is this molecule:
Q: For the molecule CC(C)(C)c1ccc(S(=O)(=O)Nc2ccc(Cl)cc2C(=O)c2cc[n+]([O-])cc2)cc1 , what Population Tubulin-Different-Phenotype (%) is on record?
Result: 37
